assay: Human HepG2 cell viability assay in 384 well format; assay type: toxicity, cell-based; parameters: dose 125 nL, time 70.5 hour; concentration not given beside the values; conditions: HepG2 cells, read-out: Inhibition
Here the recorded cytotoxicity at 70.5 h is given for each entry.
Just the number in %, nothing appended.

These recorded examples may help you get a feel for the data.
- Compound: "CCCc1cc(C(=O)Nc2nc(SC)ns2)[nH]n1"
  cytotoxicity at 70.5 h [%]: -4.32
- Compound: "CCc1ncc(-c2nccn2-c2cccc(CC(=O)O)c2)cn1"
  cytotoxicity at 70.5 h [%]: -11.5
- Compound: "CC(C)(C)C(=O)N1CCC(COCc2ccccc2)C1 (stereo not given)"
  cytotoxicity at 70.5 h [%]: -3.49

**Query** Returns the measured cytotoxicity at 70.5 h for the input compound. Input: CN(CCCNC(=O)C1CCc2cn[nH]c2C1)c1ccc(F)cc1 (stereo not given)
**Result** 16.9

**Query** Next record, please: O=C(NCC1CC1)[C@@H]1CCO[C@@H]2CCN(c3ncccn3)C[C@@H]21
**Result** -3.18

**Query** Next record, please: O=C(Cn1ccc(=O)c2ccccc21)Nc1cnccc1O
**Result** 8.04

**Query** Next record, please: CCOCC1CN(S(=O)(=O)Cc2ccccc2)Cc2nccn2C1 (stereo not given)
**Result** -3.22

**Query** Next record, please: Cc1n[nH]c(C2CN(Cc3nnc(C4CC4)n3C)CCO2)n1 (stereo not given)
**Result** -6.69

**Query** Next record, please: Cc1nc(CN2CCN(C(C)c3nc(C4CC4)no3)CC2)oc1C (stereo not given)
**Result** -3.6
